- System: OVCAR-8
- TEST PROTOCOL: NCI tumour cell line growth inhibition, 48 h
Activity calls are given as the source filed them. Cut-off read from the data, not from the text of the source: active = GI50 up to about 1.1 µM and inactive = higher.
RESULT TYPE: GI50

O=C(c1ccco1)C1CC(c2ccc3ccccc3c2O)=NN1c1ccc([N+](=O)[O-])cc1[N+](=O)[O-] (centres undefined)    23.8 µM (inactive)
CCOC(=O)c1cc(=O)oc2c1N(C)c1ncccc1N2    > 100 µM (inactive)
CC(C)N(C(=O)C12C3C4C5C3C1(C(=O)N(C(C)C)C(C)C)C5(C#N)C42)C(C)C (centres undefined)    > 100 µM (inactive)

Look at this compound and give its reported GI50. `CCCCCCCCCCCCCc1nnn[nH]1` 29.9 µM (inactive)

----------
Entries and their GI50
- System: UO-31
- TEST PROTOCOL: NCI tumour cell line growth inhibition, 48 h
Active and inactive are the calls of the source. No stated cut-off is given here; in the data, active = GI50 up to about 1.1 µM and inactive = higher.

Below, 2 molecules whose answers are already recorded.
CC(=O)NC1C(OCc2ccccc2)OC(CO)C(O)C1OCC(=O)N[C@@H](C)C(=O)N[C@H](CCC(=O)NCCCNc1ccc([N+](=O)[O-])c2[nH]c3ccccc3c(=O)c12)C(N)=O (stereo not given in full)    > 100 µM (inactive)
Nc1nc(N)nc(-c2cnccn2)n1    > 100 µM (inactive)

Would you mind telling me what GI50 value was observed for `CC(=O)Oc1cc2c(n(C)c1=O)CCC2` ? 99.5 µM (inactive)

Please give the result for `c1ccc(C[n+]2cccc(-c3cc4ccccc4[nH]3)c2)cc1` too. > 100 µM (inactive)

Next: CC(=O)O[C@]1(C)CCC2C(C)C(=O)OC2C2C(C)[C@@H](O)CC21 (stereo not given in full) 48.9 µM (inactive)

Entry `O=C(OCc1ccccc1)N1CCNCCNCC1` please > 100 µM (inactive)

Repeat for the following molecule: COC1(C)CP(=O)(OC(C)C)CC(C)=C1Cl (stereo not given) 17.8 µM (inactive)

Please do the same for `CN(NC(=O)c1cccs1)C1=NCCCN1` as well. > 100 µM (inactive)

Next molecule up: `O=[N+]([O-])/C=C/c1cc(Cl)c(/C=C/[N+](=O)[O-])cc1Cl` 1.49 µM (inactive)

O=C(NC(CO)Cc1ccc(Oc2cc(CC(CO)NC(=O)OCc3ccccc3)ccc2OC(=O)OCc2ccccc2)cc1)OCc1ccccc1 (stereo not given) , same question. 18.2 µM (inactive)

----------
- System: HOP-92
- TEST PROTOCOL: NCI tumour cell line growth inhibition, 48 h
Calls of active or inactive are those of the source. Rule as the data show it: active = GI50 up to about 1.1 µM and inactive = higher.
RESULT TYPE: GI50

CCCn1cc2c3c(cccc31)C1C=C(C)CN(C)C1C2 (stereo not given)    11.7 µM (inactive)
CC1(C)OCC(C2CCC3(C)C4=CCC5C(C)(C)C(O)CCC5(C)C4CCC23C)CC(O)C1O (stereo not given)    16.2 µM (inactive)
CCCCNC1=C2C(=O)NN=C2CO1    > 100 µM (inactive)

Would you kindly share the measured GI50 for `COCn1c(C)c(C)c2c(=O)oc(=O)[nH]c21` ? > 100 µM (inactive)

Moving on to CC(C)(C)C(=O)OCC1OC(N=[N+]=[N-])C(OC(=O)C(C)(C)C)C(OC(=O)C(C)(C)C)C1OC(=O)C(C)(C)C (stereo not given) > 100 µM (inactive)
